target of assay: T1, GARS, endogenous in H929 multiple myeloma cells (human, UniProt P41250 37-739, limits assumed)
T1 construct: Native protein pulled down from H929 lysates; also called Glycyl-tRNA synthetase; GlyRS
T1 sequence: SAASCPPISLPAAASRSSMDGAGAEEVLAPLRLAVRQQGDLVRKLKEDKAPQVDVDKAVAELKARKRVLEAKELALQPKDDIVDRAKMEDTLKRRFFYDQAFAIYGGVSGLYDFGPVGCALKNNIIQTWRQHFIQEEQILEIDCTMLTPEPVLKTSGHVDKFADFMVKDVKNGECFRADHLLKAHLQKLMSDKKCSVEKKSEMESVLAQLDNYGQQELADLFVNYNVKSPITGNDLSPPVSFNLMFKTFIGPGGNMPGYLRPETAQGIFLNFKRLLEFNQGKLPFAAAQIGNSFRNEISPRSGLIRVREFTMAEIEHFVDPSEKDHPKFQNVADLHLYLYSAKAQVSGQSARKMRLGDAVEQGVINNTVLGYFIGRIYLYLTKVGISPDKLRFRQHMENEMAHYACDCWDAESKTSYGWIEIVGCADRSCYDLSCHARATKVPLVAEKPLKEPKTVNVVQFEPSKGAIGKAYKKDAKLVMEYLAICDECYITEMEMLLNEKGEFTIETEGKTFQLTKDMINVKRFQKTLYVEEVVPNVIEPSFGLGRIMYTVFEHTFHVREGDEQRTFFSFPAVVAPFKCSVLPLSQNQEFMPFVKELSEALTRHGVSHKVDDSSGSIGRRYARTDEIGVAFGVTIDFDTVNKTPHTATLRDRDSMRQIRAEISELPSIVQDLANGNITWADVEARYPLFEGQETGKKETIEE
assay comment: flow cytometry, H929 + GARS siRNA (siRNA against the putative target); None 0.2
measured endpoint: Cells stained (%)
Report the value in % with no unit label.

Return reported Cells stained (%); argument: HW-28 chimeric rabbit-human IgG1 LA/LA/PG (antibody, V domains shown, Fc-silenced (L234A/L235A/P329G) IgG1, lambda; Alexa Fluor 647-labeled in single-step flow cytometry; Cluster C-45) VH: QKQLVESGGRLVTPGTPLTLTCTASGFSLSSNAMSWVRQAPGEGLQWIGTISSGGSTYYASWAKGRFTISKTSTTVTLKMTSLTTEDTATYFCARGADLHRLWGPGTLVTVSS VL: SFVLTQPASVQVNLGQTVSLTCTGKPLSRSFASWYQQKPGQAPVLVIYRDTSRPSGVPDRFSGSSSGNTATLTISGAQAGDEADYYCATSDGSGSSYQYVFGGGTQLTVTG
98.3

Return reported Cells stained (%); argument: HW-81 chimeric rabbit-human IgG1 LA/LA/PG (antibody, V domains shown, Fc-silenced (L234A/L235A/P329G) IgG1, lambda; Alexa Fluor 647-labeled in single-step flow cytometry; Cluster C-45) VH: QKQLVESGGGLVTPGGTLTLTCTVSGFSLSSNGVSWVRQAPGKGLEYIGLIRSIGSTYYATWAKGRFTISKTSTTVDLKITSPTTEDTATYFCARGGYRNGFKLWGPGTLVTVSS VL: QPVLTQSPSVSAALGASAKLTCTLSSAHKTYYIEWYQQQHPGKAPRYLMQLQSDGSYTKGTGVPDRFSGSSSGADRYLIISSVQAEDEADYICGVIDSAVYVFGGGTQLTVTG
99.4

Return reported Cells stained (%); argument: HW-8 chimeric rabbit-human IgG1 LA/LA/PG (antibody, V domains shown, Fc-silenced (L234A/L235A/P329G) IgG1, kappa; Alexa Fluor 647-labeled in single-step flow cytometry; Cluster C-45) VH: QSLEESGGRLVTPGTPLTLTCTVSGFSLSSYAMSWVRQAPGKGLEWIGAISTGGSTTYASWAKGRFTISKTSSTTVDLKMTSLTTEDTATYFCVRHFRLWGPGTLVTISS VL: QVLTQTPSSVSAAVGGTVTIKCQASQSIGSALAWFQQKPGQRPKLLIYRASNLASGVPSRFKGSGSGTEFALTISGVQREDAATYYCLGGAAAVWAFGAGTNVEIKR
99

Return reported Cells stained (%); argument: HW-56 chimeric rabbit-human IgG1 LA/LA/PG (antibody, V domains shown, Fc-silenced (L234A/L235A/P329G) IgG1, kappa; Alexa Fluor 647-labeled in single-step flow cytometry; Cluster C-45) VH: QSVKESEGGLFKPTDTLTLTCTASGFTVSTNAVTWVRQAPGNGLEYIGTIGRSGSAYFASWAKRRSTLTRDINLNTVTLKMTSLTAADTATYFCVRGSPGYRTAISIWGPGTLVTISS VL: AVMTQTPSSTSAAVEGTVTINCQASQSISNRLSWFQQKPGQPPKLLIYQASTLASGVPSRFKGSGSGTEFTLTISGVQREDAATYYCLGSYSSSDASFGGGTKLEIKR
99.9

Return reported Cells stained (%); argument: HW-16 chimeric rabbit-human IgG1 LA/LA/PG (antibody, V domains shown, Fc-silenced (L234A/L235A/P329G) IgG1, kappa; Alexa Fluor 647-labeled in single-step flow cytometry; Cluster C-45) VH: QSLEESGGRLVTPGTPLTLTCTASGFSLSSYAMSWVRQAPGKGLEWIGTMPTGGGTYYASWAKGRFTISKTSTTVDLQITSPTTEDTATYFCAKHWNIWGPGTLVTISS VL: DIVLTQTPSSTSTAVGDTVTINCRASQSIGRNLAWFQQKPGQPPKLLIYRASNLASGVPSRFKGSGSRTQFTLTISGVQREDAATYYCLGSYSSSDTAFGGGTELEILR
99.1

Return reported Cells stained (%); argument: HW-45 chimeric rabbit-human IgG1 LA/LA/PG (antibody, V domains shown, Fc-silenced (L234A/L235A/P329G) IgG1, lambda; Alexa Fluor 647-labeled in single-step flow cytometry; Prototype of cluster C-45) VH: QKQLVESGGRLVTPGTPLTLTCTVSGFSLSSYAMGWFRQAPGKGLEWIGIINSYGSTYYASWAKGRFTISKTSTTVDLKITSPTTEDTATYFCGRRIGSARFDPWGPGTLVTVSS VL: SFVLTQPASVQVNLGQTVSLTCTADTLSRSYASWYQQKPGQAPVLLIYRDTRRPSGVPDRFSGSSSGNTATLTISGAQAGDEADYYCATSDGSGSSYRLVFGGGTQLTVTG
98.5

Where these numbers come from: patent US20260049134A1
